Values compiled from patent US4946858A.

Measured on: aldose reductase (Bos taurus)
Construct: preparation of the enzyme from bovine lens; from tissue; host or cells: bovine lens
Assay explanation: In vitro inhibition of aldose reductase (modified Hayman and Kinoshita procedure, enzyme from bovine lens)
Assay type: biochemical
Condition summary: 10^-6 M; read-out: % Inhibition in Vitro
Use 60% as the dividing line for inhibition at 1 µM, with the line itself on the Criterion met side and lower values as Criterion not met.

{"Compound": "CN1C(=O)c2ccc(Cl)cc2C12CC(=O)NC2=O (centres unmarked) [Example 102]", "Assigned label": "Criterion met"}
{"Compound": "O=C1CC2(C(=O)N1)c1ccccc1S(=O)(=O)N2Cc1ccc2ccccc2c1 (centres unmarked) [Example 113]", "Assigned label": "Criterion not met"}
{"Compound": "O=C1CC2(C(=O)N1)c1ccccc1S(=O)(=O)N2Cc1ccccc1 (centres unmarked) [Example 103]", "Assigned label": "Criterion not met"}
{"Compound": "CN1C(=O)c2cccc(Cl)c2C12CC(=O)NC2=O (centres unmarked) [Example 125]", "Assigned label": "Criterion not met"}

====

Measured on: aldose reductase (Bos taurus)
Construct: preparation of the enzyme from bovine lens; from tissue; host or cells: bovine lens
Assay explanation: In vitro inhibition of aldose reductase (modified Hayman and Kinoshita procedure, enzyme from bovine lens)
Assay type: biochemical
Condition summary: 10^-5 M; read-out: % Inhibition in Vitro
Excerpt: In the present case the procedure of Hayman and Kinoshita was modified in that the final chromatography step was omitted in the preparation of the enzyme from bovine lens.

{"Compound": "CN1C(=O)c2c(Cl)cccc2C12CC(=O)NC2=O (stereo not drawn)", "inhibition at 10 µM, %": 85}
{"Compound": "CN1C(=O)c2cc3ccccc3cc2C12CC(=O)NC2=O (stereo not drawn)", "inhibition at 10 µM, %": 95}
{"Compound": "CCN1C(=O)c2ccc(Cl)cc2C12CC(=O)NC2=O (stereo not drawn)", "inhibition at 10 µM, %": 78}
{"Compound": "O=C1CC2(C(=O)N1)c1cc(Cl)ccc1C(=O)N2Cc1ccc(Br)cc1F (stereo not drawn)", "inhibition at 10 µM, %": 85}
{"Compound": "CN1C2(CC(=O)NC2=O)c2ccccc2S1(=O)=O (stereo not drawn)", "inhibition at 10 µM, %": 40}
{"Compound": "COc1ccc2c(c1)C(=O)N(C)C21CC(=O)NC1=O (stereo not drawn)", "inhibition at 10 µM, %": 83}
{"Compound": "O=C1CC2(C(=O)N1)c1ccccc1S(=O)(=O)N2Cc1ccc(Br)cc1F (stereo not drawn)", "inhibition at 10 µM, %": 52}
{"Compound": "CN1C(=O)c2cc(-c3ccccc3)ccc2C12CC(=O)NC2=O (stereo not drawn)", "inhibition at 10 µM, %": 90}
{"Compound": "O=C1CC2(C(=O)N1)c1ccccc1S(=O)(=O)N2Cc1ccccc1 (stereo not drawn)", "inhibition at 10 µM, %": 45}

====

Measured on: aldose reductase (Bos taurus, UniProt P16116)
Construct: preparation of the enzyme from bovine lens; from tissue; host or cells: bovine lens
Assay explanation: In vitro inhibition of aldose reductase (modified Hayman and Kinoshita procedure, enzyme from bovine lens)
Type: biochemical
Condition summary: 10^-5 M; read-out: % Inhibition in Vitro
The entries below are paired with their reported inhibition at 10 µM.

{"Compound": "O=C1CC2(C(=O)N1)c1ccccc1S(=O)(=O)N2Cc1ccc(Cl)c(Cl)c1 (stereo not drawn)", "Readout unit": "%", "inhibition at 10 µM": 63}
{"Compound": "CN1C(=O)c2cc(Br)ccc2C12CC(=O)NC2=O (stereo not drawn)", "Readout unit": "%", "inhibition at 10 µM": 92}
{"Compound": "O=C1NC(=O)[C@@]2(CCOc3ccc(F)cc32)N1 [Sorbinil, reference compound]", "Readout unit": "%", "inhibition at 10 µM": 83}
{"Compound": "O=C1CC2(C(=O)N1)c1ccccc1S(=O)(=O)N2Cc1ccc2ccccc2c1Br (stereo not drawn)", "Readout unit": "%", "inhibition at 10 µM": 59}
{"Compound": "CN1C(=O)c2ccc([N+](=O)[O-])cc2C12CC(=O)NC2=O (stereo not drawn)", "Readout unit": "%", "inhibition at 10 µM": 91}
{"Compound": "CN1C(=O)c2cc(Cl)ccc2C12CC(=O)NC2=O (stereo not drawn)", "Readout unit": "%", "inhibition at 10 µM": 88}

====

Measured on: aldose reductase (Bos taurus, UniProt P16116)
Construct: preparation of the enzyme from bovine lens; from tissue; host or cells: bovine lens
Assay explanation: In vitro inhibition of aldose reductase (modified Hayman and Kinoshita procedure, enzyme from bovine lens)
Assay type: biochemical
Condition summary: 10^-6 M; read-out: % Inhibition in Vitro

{"Compound": "CN1C(=O)c2ccc(F)cc2C12CC(=O)NC2=O (stereo not drawn)", "Measured on": "aldose reductase (Bos taurus, UniProt P16116)", "inhibition at 1 µM, %": 74}
{"Compound": "CSc1ccc2c(c1)C(=O)N(C)C21CC(=O)NC1=O (stereo not drawn)", "Measured on": "aldose reductase (Bos taurus, UniProt P16116)", "inhibition at 1 µM, %": 60}
{"Compound": "O=C1CC2(C(=O)N1)c1ccccc1C(=O)N2Cc1ccc(Cl)c(Cl)c1 (stereo not drawn)", "Measured on": "aldose reductase (Bos taurus, UniProt P16116)", "inhibition at 1 µM, %": 45}
{"Compound": "COc1ccc2c(c1)C(=O)N(C)C21CC(=O)NC1=O (stereo not drawn)", "Measured on": "aldose reductase (Bos taurus, UniProt P16116)", "inhibition at 1 µM, %": 56}
{"Compound": "CN1C2(CC(=O)NC2=O)c2ccccc2S1(=O)=O (stereo not drawn)", "Measured on": "aldose reductase (Bos taurus, UniProt P16116)", "inhibition at 1 µM, %": 6}
{"Compound": "O=C1CC2(C(=O)N1)c1ccccc1S(=O)(=O)N2Cc1ccc(Cl)c(Cl)c1 (stereo not drawn)", "Measured on": "aldose reductase (Bos taurus, UniProt P16116)", "inhibition at 1 µM, %": 16}
{"Compound": "CCN1C(=O)c2ccc(Cl)cc2C12CC(=O)NC2=O (stereo not drawn)", "Measured on": "aldose reductase (Bos taurus, UniProt P16116)", "inhibition at 1 µM, %": 37}
{"Compound": "O=C1CC2(C(=O)N1)c1cc(Cl)ccc1C(=O)N2Cc1ccc(Br)cc1F (stereo not drawn)", "Measured on": "aldose reductase (Bos taurus, UniProt P16116)", "inhibition at 1 µM, %": 70}
{"Compound": "CN1C(=O)c2cc(Cl)c(Cl)cc2C12CC(=O)NC2=O (stereo not drawn)", "Measured on": "aldose reductase (Bos taurus, UniProt P16116)", "inhibition at 1 µM, %": 83}

====

Measured on: aldose reductase (Bos taurus, UniProt P16116)
Construct: preparation of the enzyme from bovine lens; from tissue; host or cells: bovine lens
Assay explanation: In vitro inhibition of aldose reductase (modified Hayman and Kinoshita procedure, enzyme from bovine lens)
Format: biochemical
Condition summary: 10^-6 M; read-out: % Inhibition in Vitro

{"Compound": "CCCN1C(=O)c2cc(Cl)c(Cl)cc2C12CC(=O)NC2=O (stereo not shown)", "inhibition at 1 µM": "12%"}
{"Compound": "CN1C(=O)c2ccccc2C12CC(=O)NC2=O (stereo not shown)", "inhibition at 1 µM": "45%"}
{"Compound": "CN1C(=O)c2cc(Cl)ccc2C12CC(=O)NC2=O (stereo not shown)", "inhibition at 1 µM": "72%"}
{"Compound": "O=C1CC2(C(=O)N1)c1ccccc1S(=O)(=O)N2Cc1ccc2ccccc2c1Br (stereo not shown)", "inhibition at 1 µM": "25%"}

====

Measured on: aldose reductase (Bos taurus, UniProt P16116)
Construct: preparation of the enzyme from bovine lens; from tissue; host or cells: bovine lens
Assay explanation: In vitro inhibition of aldose reductase (modified Hayman and Kinoshita procedure, enzyme from bovine lens)
Assay type: biochemical
Condition summary: 10^-5 M; read-out: % Inhibition in Vitro
Use 80% as the dividing line for inhibition at 10 µM, with the line itself on the 1 (yes) side and lower values as 0 (no).

{"Molecule": "CSc1ccc2c(c1)C(=O)N(C)C21CC(=O)NC1=O (stereo not shown) [Example 130]", "Assigned label": "1 (yes)"}
{"Molecule": "Cc1cccc2c1C(=O)N(C)C21CC(=O)NC1=O (stereo not shown) [Example 135]", "Assigned label": "1 (yes)"}
{"Molecule": "Cc1ccc2c(c1)C(=O)N(C)C21CC(=O)NC1=O (stereo not shown) [Example 133]", "Assigned label": "1 (yes)"}
{"Molecule": "CN1C(=O)c2ccc(Cl)cc2C12CC(=O)NC2=O (stereo not shown) [Example 102]", "Assigned label": "1 (yes)"}
{"Molecule": "CCCN1C(=O)c2cc(Cl)c(Cl)cc2C12CC(=O)NC2=O (stereo not shown) [Example 131]", "Assigned label": "0 (no)"}
{"Molecule": "CN1C(=O)c2cccc(Cl)c2C12CC(=O)NC2=O (stereo not shown) [Example 125]", "Assigned label": "1 (yes)"}
{"Molecule": "O=C1CC2(C(=O)N1)c1ccccc1C(=O)N2Cc1ccc(Br)cc1F (stereo not shown) [Example 116]", "Assigned label": "1 (yes)"}
{"Molecule": "O=C1CC2(C(=O)N1)c1ccccc1S(=O)(=O)N2Cc1ccc2ccccc2c1 (stereo not shown) [Example 113]", "Assigned label": "0 (no)"}
{"Molecule": "COC(=O)c1ccc2c(c1)C1(CC(=O)NC1=O)N(C)C2=O (stereo not shown) [Example 134]", "Assigned label": "1 (yes)"}
